Reference for the values: patent US20220306762A1

The following binders are listed with their measured Kd values.
# TARGET UNDER TEST: T1, His-tagged human CD38 (ACRO Biosystems cat #CD8-H5224) (human, UniProt P28907 43-300)
# T1 construct: bought recombinant protein with His tag
# MEASUREMENT PROTOCOL: SPR, captured scFv-Fc, His-CD38 analyte;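 further: SPR on a Carterra LSA, scFv-Fc captured by anti-human Fc on HC30M chip, His-tagged CD38 (human, mouse, cynomolgus) flowed as analyte in eight 1:2 steps from 400 nM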
RECORDED ENDPOINT: Kd (nM)

binder="40617p1.2.A3 (scFv, V domains shown, tested as scFv-Fc supernatant) VH: EVQLLESGGGLVQPGGSLRLSCAASGFTFSNYWMTWVRQAPGKGLEWVSAISSYGGNYIYYADSVKGRFTISRDNSKDTLYLQMNSLRAEDTAVYYCAKDWDDGMDVWGQGTTVTVSS VL: EIVMTQSPAVLSVSPGERATLSCRASQSVNSKLAWYQQKPGQAPRLLIYGASTRAAGIPDRFSGSGSGTDFTLTISSPQSEDFAVYYCQHYYDLPPYSFGGGTKVEIK" recorded_endpoint=Kd result_value=28.1
binder="40769p1.1.B10 (scFv, V domains shown, tested as scFv-Fc supernatant) VH: EVQLLESGGGLVQPGGSLRLSCTASGITFSRFNMFWVRQAPGKGLEFVASIRDDGSWTYYADSVKGRFTISRDNSKNTLYLQMNSLRAEDTAVYYCAKDYNSKDFIYHYVMDVWGQGTTVTVSS VL: QSVLTQPPSASGTPGQRVTISCSGRNSNIGNNVVNWYQQLPGTAPKLLIYRNQERPSGVPDRFSGSKSGTSASLAISGLQSEDEADYYCSTWDDSLNGWVFGGGTKLTVL" recorded_endpoint=Kd result_value=8.02
binder="40617p1.2.A1 (scFv, V domains shown, tested as scFv-Fc supernatant) VH: EVQLLESGGGLVQPGGSLRLSCAASGFTFSSYWMTWVRQAPGKGLEWVSAISSYGGQYTYYADSVKGRFTISRDNSKDTLYLHMDSLRAEDTAVYYCAKDWDDGMDVWGQGTTVTVSS VL: EIVMTQSPAVLSVSPGERATLSCRASQSVNIKLAWYQQKPGQAPRLLIYGASTRAAGIPDRFSGSGSGTDFTLTISSLQSDDFAVYYCQQYYDLPPYSFGGGTKVEIK" recorded_endpoint=Kd result_value=82.9
